test: NCI Yeast Anticancer Drug Screen. Data for the cln2 rad14 strain (AID 165);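 also: 0% = growth equal to vehicle treated cultures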; conditions: S. cerevisiae cln2 rad14 strain, at 50.0 µM (retest, dose inferred, filed as 5.0)
About 79,000 compounds went through this panel and 15% of them were active in at least one assay; those are over-represented in the sample as a whole. Active and inactive are the calls of the source. Rule as the data show it: active = growth inhibition above about 70%; inactive = the rest. Where a SMILES comes first, the peptide text is derived from it. The star is where a group is joined. Trt = c1ccc(C(c2ccccc2)(c2ccccc2)*)cc1; Cbz = O=C(OCc1ccccc1)*
Outcomes you can answer with include only these: yes (1) (active), no (0) (inactive)

Challenge: Per the assay record, what outcome was assigned to COC(=O)CCCCCCCCCCC(=O)O ?
Response given: no (0)

Challenge: Per the assay record, what outcome was assigned to Cc1c(C)c(NC(=O)/C=C/C(=O)O)c(C)c(C)c1NC(=O)/C=C\C(=O)O ?
Response given: no (0)

Challenge: Per the assay record, what outcome was assigned to CCCCCCCCCCCCSCCCN ?
Response given: yes (1)

Challenge: Per the assay record, what outcome was assigned to Nc1ccc(-c2ccc(N)cc2S(=O)(=O)O)c(S(=O)(=O)O)c1 ?
Response given: no (0)

Challenge: Per the assay record, what outcome was assigned to O=C(O)c1ccccc1N=N/C(=N\Nc1cc(S(=O)(=O)O)ccc1O)c1ccccc1 ?
Response given: no (0)

Challenge: Per the assay record, what outcome was assigned to Oc1ccc(C2CCCCC2)c(O)c1 ?
Response given: no (0)

Challenge: Per the assay record, what outcome was assigned to CCOC(=O)CCC(NC(=O)C(CSC(c1ccccc1)(c1ccccc1)c1ccccc1)NC(=O)OCc1ccccc1)C(=O)NC(CCC(=O)OCC)C(=O)NC(CCC(=O)OCC)C(=O)NC(CCC(=O)OCC)C(=O)NC(CSC(c1ccccc1)(c1ccccc1)c1ccccc1)C(=O)OC (configuration not stated) (Cbz-C(Trt)E(OEt)E(OEt)E(OEt)E(OEt)C(Trt)-OMe; configuration not given here) ?
Response given: yes (1)

Challenge: Per the assay record, what outcome was assigned to O=C(c1ccc(Br)cc1)C1OC12C(=O)Nc1ccccc12 (configuration not stated) ?
Response given: yes (1)

Challenge: Per the assay record, what outcome was assigned to Cc1scnc1C(C#N)(c1ccccc1)c1ccccc1 ?
Response given: yes (1)

Challenge: Per the assay record, what outcome was assigned to CC(CN(C)C)C(/C=C/c1ccccc1)=N\NC(=O)c1ccccc1 (configuration not stated) ?
Response given: no (0)

Challenge: Per the assay record, what outcome was assigned to C=C1C(=O)C23C(O)C1CC[C@H]2C12CCCC(C)(COC(C)=O)[C@H]1[C@H](O)[C@]3(O)OC2 (some centres not stated) ?
Response given: yes (1)

Challenge: Per the assay record, what outcome was assigned to Nc1ccc2c(c1)[nH]c(=O)c1cc(Cl)c(Cl)cc12 ?
Response given: yes (1)

Challenge: Per the assay record, what outcome was assigned to Nc1cc(Cl)ccc1C(=O)O ?
Response given: no (0)

Challenge: Per the assay record, what outcome was assigned to O=C(CC1CCCC(CC(=O)c2ccccc2)N1CCc1ccccc1)c1ccccc1 (configuration not stated) ?
Response given: yes (1)

Challenge: Per the assay record, what outcome was assigned to O=C1C2C3C=CC(C3)C2C(=NS(=O)(=O)c2ccccc2)C2C3C=CC(C3)C12 (configuration not stated) ?
Response given: no (0)

Challenge: Per the assay record, what outcome was assigned to CC(NC(=O)OCc1ccccc1)C(=O)NC(Cc1ccccc1)C(=O)OCc1ccccc1 (configuration not stated) ?
Response given: no (0)

Challenge: Per the assay record, what outcome was assigned to N#CC(C(=O)CCc1nc2ccccc2[nH]1)c1c(Cl)cccc1Cl (configuration not stated) ?
Response given: no (0)

Challenge: Per the assay record, what outcome was assigned to OB1c2ccccc2CCc2ccccc21 ?
Response given: yes (1)

Challenge: Per the assay record, what outcome was assigned to Cc1ccc(S(=O)(=O)Nn2c(S)c(C#N)c(-c3ccc([N+](=O)[O-])cc3)c(C#N)c2=O)cc1 ?
Response given: no (0)

Challenge: Per the assay record, what outcome was assigned to CCCCCOC(=O)C1C(=O)CC(c2ccccc2)C1c1ccccc1 (configuration not stated) ?
Response given: yes (1)

Challenge: Per the assay record, what outcome was assigned to CCCCCCCCCCCCNCc1ccc(Cl)c(Cl)c1 ?
Response given: yes (1)

Challenge: Per the assay record, what outcome was assigned to COc1ccc2oc(-c3ccc(OC)c(OC)c3OC)cc(=O)c2c1 ?
Response given: no (0)

Challenge: Per the assay record, what outcome was assigned to CCN1CCC(O)(/C=C/c2ccc(Cl)c(Cl)c2)C(C(=O)/C=C/c2ccc(Cl)c(Cl)c2)C1 (configuration not stated) ?
Response given: yes (1)

Challenge: Per the assay record, what outcome was assigned to COc1ccc(C(c2ccc(OC)cc2)c2ccccc2C(=O)O)cc1 ?
Response given: no (0)

Challenge: Per the assay record, what outcome was assigned to OCC1CCc2[nH]c3ccccc3c2C1 (configuration not stated) ?
Response given: no (0)

Challenge: Per the assay record, what outcome was assigned to COC(=O)C1CCC(=O)N1C(c1ccc(OC)cc1)c1cc(OC)c(OC)c(OC)c1 (configuration not stated) ?
Response given: no (0)

Challenge: Per the assay record, what outcome was assigned to COc1cc(C2=NCCO2)cc(OC)c1OC ?
Response given: no (0)

Challenge: Per the assay record, what outcome was assigned to O=C1C(=O)N(c2ccccc2)N=C1N=Nc1ccccc1 ?
Response given: no (0)

Challenge: Per the assay record, what outcome was assigned to NC(=O)NNC(=O)NNC(N)=O ?
Response given: no (0)

Challenge: Per the assay record, what outcome was assigned to COC(=O)CCC(C)C1CCC2C3CCC4CC(SC(=N)N)CCC4(C)C3CC(O)C12C (configuration not stated) ?
Response given: yes (1)

Challenge: Per the assay record, what outcome was assigned to CC(C)C1/C(=N/O)CC(c2ccccc2)N(N=O)C1c1ccccc1 (configuration not stated) ?
Response given: yes (1)

Challenge: Per the assay record, what outcome was assigned to COc1ccc(-c2c3ccccc3[n+](-c3ccccc3)c3ccccc23)cc1 ?
Response given: yes (1)

Challenge: Per the assay record, what outcome was assigned to O=NN(CCCl)C(=O)Nc1cc(Cl)ccc1O ?
Response given: no (0)

Challenge: Per the assay record, what outcome was assigned to CS(=O)(=O)n1c(C(O)c2ccccc2)nc2ccccc21 (configuration not stated) ?
Response given: no (0)

Challenge: Per the assay record, what outcome was assigned to Clc1ccc(CN2COc3c(cc(Cl)c4cccnc34)C2)cc1 ?
Response given: yes (1)

Challenge: Per the assay record, what outcome was assigned to Cc1cc(Cl)ccc1Nc1sc(C(=O)c2cc3cc(Cl)ccc3o2)c(N)c1C#N ?
Response given: yes (1)

Challenge: Per the assay record, what outcome was assigned to CCNCC(O)COc1ccc2c(c1)[n+]([O-])nc(N)[n+]2[O-] (configuration not stated) ?
Response given: no (0)

Challenge: Per the assay record, what outcome was assigned to [Cu+2].[NH-]c1ccccc1O.[NH-]c1ccccc1[OH2+] ?
Response given: no (0)

Challenge: Per the assay record, what outcome was assigned to Cc1cc(C)c(O)c(Cc2cc(Cl)cc(Cc3cc(C)cc(C)c3O)c2O)c1 ?
Response given: yes (1)

Challenge: Per the assay record, what outcome was assigned to Clc1ccc(C2=CC(c3ccccc3)N3C(=N[C@H]4CCCC[C@@H]43)N2)cc1 (some centres not stated) ?
Response given: no (0)

Challenge: Per the assay record, what outcome was assigned to Cc1cc([N+](=O)[O-])ccc1NC(=O)N(C)CCOC(=O)Nc1ccccc1 ?
Response given: yes (1)

Challenge: Per the assay record, what outcome was assigned to N=Nc1c(OC(=O)Nc2cccc(Cl)c2)[nH]c2ccccc12 ?
Response given: yes (1)

###

assay: NCI Yeast Anticancer Drug Screen. Data for the sgs1 mgt1 strain (AID 161);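 also: 0% = growth of cultures given vehicle only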; details: S. cerevisiae sgs1 mgt1 strain, at 50.0 µM (retest, dose inferred, filed as 5.0), hits give high values
This is part of a sample that, as a whole, favours compounds with a hit. Of some 79,000 tested, about 15% had one in any assay.
measured endpoint: growth inhibition (%)
Hi! Could you send only the number? It should be in %, unit omitted.

Challenge: Would you kindly share the measured growth inhibition for CCN(CC)C(=S)N/N=C(/c1ccccc1)c1ccccn1 ?
Response given: 97

Challenge: Would you kindly share the measured growth inhibition for COc1ccc(C2COc3cc(OC(C)=O)c(OC(C)=O)cc3C2)cc1 (centres undefined) ?
Response given: 93

Challenge: Would you kindly share the measured growth inhibition for CC(=O)OCC1OC(Sc2ccc3ccccc3c2)C(OC(C)=O)C(OC(C)=O)C1OC(C)=O (centres undefined) ?
Response given: 1

Challenge: Would you kindly share the measured growth inhibition for N/N=C(/N)SCCCCCCCCCCS/C(N)=N/N ?
Response given: 76

Challenge: Would you kindly share the measured growth inhibition for CCS(=O)(=O)c1ccc(NC(=O)OC2CC(C)CCC2C(C)C)cc1 (centres undefined) ?
Response given: 91

Challenge: Would you kindly share the measured growth inhibition for CCOC(=O)C1=C(c2ccccc2)c2ccccc2OC1C(=O)O (centres undefined) ?
Response given: 64

Challenge: Would you kindly share the measured growth inhibition for [C](#[C][Sn]([c]1ccccc1)([c]1ccccc1)[c]1ccccc1)[Sn]([c]1ccccc1)([c]1ccccc1)[c]1ccccc1 ?
Response given: 97

Challenge: Would you kindly share the measured growth inhibition for O=C(CCC(NC(=O)OCc1ccccc1)C(=O)OCc1ccccc1)NC(CSCc1ccccc1)C(=O)NCC(=O)Oc1c(Cl)c(Cl)c(Cl)c(Cl)c1Cl (centres undefined) ?
Response given: 35

Challenge: Would you kindly share the measured growth inhibition for Cc1cc(C)nc(NS(=O)(=O)c2ccc(NC(=O)c3cccnc3Nc3cccc(Cl)c3)cc2)n1 ?
Response given: 51

Hello, the source for this data is PubChem BioAssay (NCI), in case you need it.
